Measured pKd by item
Biological target: T1, monkey MSR1 extracellular domain expressed with a N-terminal hexahistidine-myc-myc tag (HMM-mfMSR1) (monkey (Macaca fascicularis))
T1 chain: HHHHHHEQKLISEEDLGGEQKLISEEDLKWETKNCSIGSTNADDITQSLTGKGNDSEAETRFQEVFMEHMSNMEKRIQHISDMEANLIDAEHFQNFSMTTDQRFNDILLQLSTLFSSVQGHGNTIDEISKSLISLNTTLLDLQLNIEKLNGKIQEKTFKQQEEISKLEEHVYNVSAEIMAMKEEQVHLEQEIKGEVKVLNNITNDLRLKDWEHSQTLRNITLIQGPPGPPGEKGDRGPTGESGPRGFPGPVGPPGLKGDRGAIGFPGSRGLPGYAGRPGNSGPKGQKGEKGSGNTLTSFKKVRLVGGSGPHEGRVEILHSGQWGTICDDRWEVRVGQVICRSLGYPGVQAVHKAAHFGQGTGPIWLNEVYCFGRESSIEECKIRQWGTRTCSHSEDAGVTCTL
Test: SPR Biacore, 25 C, antibody captured;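 further: rates from 1:1 fit with mass transport limitation of real-time sensorgrams, HEPES-buffered saline with EDTA and Tween-20 at pH 7.4, KD and t½ derived from the kinetic rates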
pKd: −log10 of the molar value.
experimental endpoint: pKd

{"binder": "H1H27739P-N297Q (antibody, V domains shown, Human IgG1 Fc with N297Q point mutation) VH: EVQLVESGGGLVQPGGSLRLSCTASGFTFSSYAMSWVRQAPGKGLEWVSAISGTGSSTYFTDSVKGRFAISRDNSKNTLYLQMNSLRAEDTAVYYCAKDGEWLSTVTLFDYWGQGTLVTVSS VL: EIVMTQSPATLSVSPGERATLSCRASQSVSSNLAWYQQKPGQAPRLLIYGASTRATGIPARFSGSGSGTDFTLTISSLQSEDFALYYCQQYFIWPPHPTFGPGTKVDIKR", "recorded measurement": 9.39}
{"binder": "H1H27731P-N297Q (antibody, V domains shown, Human IgG1 Fc with N297Q point mutation) VH: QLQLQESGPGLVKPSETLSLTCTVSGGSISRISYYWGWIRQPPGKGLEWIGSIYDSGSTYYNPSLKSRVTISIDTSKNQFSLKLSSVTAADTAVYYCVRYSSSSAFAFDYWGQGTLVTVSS VL: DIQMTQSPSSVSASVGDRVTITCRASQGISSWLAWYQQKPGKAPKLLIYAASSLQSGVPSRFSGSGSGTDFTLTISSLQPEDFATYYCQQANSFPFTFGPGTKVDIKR", "recorded measurement": 9.32}
{"binder": "H1H27732P-N297Q (antibody, V domains shown, Human IgG1 Fc with N297Q point mutation) VH: QLQLQESGPGLVKPSETLSLTCTVSGGSISSSTYYWGWIRQPPGKGLEWIGSFYYSGSTYYNPSLKSRVTISVGTSKNQFSLKLSSVTAADTAVYFCARGGLLGRPFVIWGQGTMVTVSS VL: DIQMTQSPSSLSASVGDRVTITCRASQGIRNDLGWYQQKPGKAPKRLIYAASSLQSGVPSRFSGSGSGTEFTLTISSLQPEDFATYYCLQHNSYPLTFGGGTKVEIKR", "recorded measurement": 9.61}
